# assay_procedure: Prodrug conversion in dog liver assessed as nucleotide triphosphate level at 5 mg/kg, po measured after 24 hrs
# Format: ADME, organism-based, Canis lupus familiaris
# assay_setup: in vivo
Rule: class 1 for Drug metabolism not less than 0.2 µg/g, class 0 for anything less.

{"columns": ["compound", "assigned_class"],
 "data": [
  ["CC(C)C(=O)OC[C@H](C)NP(=O)(OC[C@H]1O[C@@H](n2ccc(=O)[nH]c2=O)[C@](Cl)(Br)[C@@H]1O)Oc1ccccc1 (stereo partly drawn)", "class 0"],
  ["CCOC(=O)[C@H](C)NP(=O)(OC[C@H]1O[C@@H](n2ccc(=O)[nH]c2=O)[C@](Cl)(Br)[C@@H]1O)Oc1ccccc1 (stereo partly drawn)", "class 1"],
  ["COCC(C)OC(=O)[C@H](C)NP(=O)(OC[C@H]1O[C@@H](n2ccc(=O)[nH]c2=O)[C@](Cl)(Br)[C@@H]1O)Oc1ccccc1 (stereo partly drawn)", "class 0"],
  ["CCOC(=O)C(C)(C)NP(=O)(OC[C@H]1O[C@@H](n2ccc(=O)[nH]c2=O)[C@](Cl)(Br)[C@@H]1O)Oc1ccccc1 (stereo partly drawn)", "class 1"],
  ["CC(C)OC(=O)C(C)(C)NP(=O)(OC[C@H]1O[C@@H](n2ccc(=O)[nH]c2=O)[C@](Cl)(Br)[C@@H]1O)Oc1ccccc1 (stereo partly drawn)", "class 1"],
  ["CC(C)OC(=O)[C@H](C)N[P@](=O)(OC[C@H]1O[C@@H](n2ccc(=O)[nH]c2=O)[C@](Cl)(Br)[C@@H]1O)Oc1ccccc1", "class 0"],
  ["CC(C)OC(=O)[C@H](C)N[P@@](=O)(OC[C@H]1O[C@@H](n2ccc(=O)[nH]c2=O)[C@](Cl)(Br)[C@@H]1O)Oc1ccccc1", "class 0"],
  ["CC(C)OC(=O)[C@H](C)N[P@](=O)(OC[C@H]1O[C@@H](n2ccc(=O)[nH]c2=O)[C@](Cl)(Br)[C@@H]1OC(=O)[C@@H](N)C(C)C)Oc1ccccc1", "class 1"]
]}

###

# assay_procedure: Prodrug conversion in dog liver assessed as 2-((((2R,3R,4R,5R)-4-bromo-4-chloro-5-(2,4-dioxo-3,4-dihydropyrimidin-1(2H)-yl)-3-hydroxytetrahydrofuran-2-yl)methoxy)(hydroxy)phosphorylamino)-2-methylpropanoic acid level at 5 mg/kg, po after 4 hrs
# Type: ADME, organism-based, Canis lupus familiaris
# assay_setup: in vivo

{"columns": ["compound", "Drug metabolism / µg/g"],
 "data": [
  ["CC(C)C(=O)OC[C@H](C)NP(=O)(OC[C@H]1O[C@@H](n2ccc(=O)[nH]c2=O)[C@](Cl)(Br)[C@@H]1O)Oc1ccccc1 (stereo partly drawn)", 0.151],
  ["CC(C)OC(=O)[C@H](C)N[P@](=O)(OC[C@H]1O[C@@H](n2ccc(=O)[nH]c2=O)[C@](Cl)(Br)[C@@H]1O)Oc1ccccc1", 0.066],
  ["CC(C)OC(=O)[C@H](C)N[P@@](=O)(OC[C@H]1O[C@@H](n2ccc(=O)[nH]c2=O)[C@](Cl)(Br)[C@@H]1O)Oc1ccccc1", 0.644]
]}

###

# assay_procedure: Intrinsic clearance in human hepatocytes
# Format: ADME, cell-based, Hepatocyte
# assay_setup: read-out: CLH (converted)
Rule: fulfilled for CLint scaled not less than 200 mL/min/kg, not fulfilled for anything less.

{"columns": ["compound", "assigned_class"],
 "data": [
  ["CC(C)OC(=O)C(C)(C)NP(=O)(OC[C@H]1O[C@@H](n2ccc(=O)[nH]c2=O)[C@](Cl)(Br)[C@@H]1O)Oc1ccccc1 (some centres not stated)", "not fulfilled"],
  ["CCOC(=O)[C@H](C)N[P@](=O)(OC[C@H]1O[C@@H](n2ccc(=O)[nH]c2=O)[C@](Cl)(Br)[C@@H]1O)Oc1ccccc1", "not fulfilled"],
  ["COCC(C)OC(=O)[C@H](C)NP(=O)(OC[C@H]1O[C@@H](n2ccc(=O)[nH]c2=O)[C@](Cl)(Br)[C@@H]1O)Oc1ccccc1 (some centres not stated)", "fulfilled"],
  ["CCOC(=O)[C@H](C)N[P@@](=O)(OC[C@H]1O[C@@H](n2ccc(=O)[nH]c2=O)[C@](Cl)(Br)[C@@H]1O)Oc1ccccc1", "not fulfilled"],
  ["COCC(=O)OC[C@H](C)NP(=O)(OC[C@H]1O[C@@H](n2ccc(=O)[nH]c2=O)[C@](Cl)(Br)[C@@H]1O)Oc1ccccc1 (some centres not stated)", "fulfilled"],
  ["CCOC(=O)C(C)(C)NP(=O)(OC[C@H]1O[C@@H](n2ccc(=O)[nH]c2=O)[C@](Cl)(Br)[C@@H]1O)Oc1ccccc1 (some centres not stated)", "fulfilled"],
  ["COc1cccc(O[P@](=O)(N[C@@H](C)C(=O)OC(C)C)OC[C@H]2O[C@@H](n3ccc(=O)[nH]c3=O)[C@](Cl)(Br)[C@@H]2O)c1", "fulfilled"],
  ["CC(C)OC(=O)[C@H](C)N[P@](=O)(OC[C@H]1O[C@@H](n2ccc(=O)[nH]c2=O)[C@](Cl)(Br)[C@@H]1O)Oc1cccc2ccccc12", "fulfilled"],
  ["COCC(C)C(=O)OC[C@H](C)NP(=O)(OC[C@H]1O[C@@H](n2ccc(=O)[nH]c2=O)[C@](Cl)(Br)[C@@H]1O)Oc1ccccc1 (some centres not stated)", "fulfilled"],
  ["CC(C)OC(=O)[C@H](C)N[P@](=O)(OC[C@H]1O[C@@H](n2ccc(=O)[nH]c2=O)[C@](Cl)(Br)[C@@H]1O)Oc1ccccc1", "fulfilled"],
  ["CC(C)OC(=O)[C@H](C)N[P@](=O)(OC[C@H]1O[C@@H](n2ccc(=O)[nH]c2=O)[C@](C)(F)[C@@H]1O)Oc1ccccc1", "not fulfilled"]
]}

Taken from ChEMBL document CHEMBL4627278.
